# assay info: label from the status in PepcDB records;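 note: failed if final PepcDB status was selected cloned or expressed and not failed if soluble or beyond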
value type: protein production

* MIRPEYLRVLRKIYDRLKNEKVNWVVTGSLSFALQGVPVEVHDIDIQTDEEGAYEIERIFSEFVSKKVRFSSTEKICSHFGELIIDGIKVEIMGDIRKRLEDGTWEDPVDLNKYKRFVETHGMKIPVLSLEYEYQAYLKLGRVEKAETLRKWLNERKG | not failed
* MLTTFLATVIGWYLVIVSLFLLFHNEHAKSAMAEIIAHRGSQLIMAIVTLITGLLLVVSHNIWVMGWPVVITLFAWLVLLGGLIRFLCPDTAVRIGQSFVDNPMRLKIAAVIFFIIGLFLLFNVYYVYLK | failed
* MQKNLDSLLENLRAEIDALDNELSDLLDKRLEIALKIALIKQESPIYCPKREQEILKRLSQRDFKHLNGEILTGFYTEVFKISRKFQENALKELKK | failed
* MTKSQIMDLSNFYQDTDYPSGRLIALLILSLGLTPAEIANLKKADFDTTFNILSIEKSQMKRILKLPEDLLPFLLESLEEDGDLVFEHNGKPYSRQWFFNQLTDFLNEKNEQQLTAQLLREQFILKQKENGKTMTELSRLLGLKTPITLERYYRLEHHHHHH | not failed
* MASYTLRQLKYFVTTVECGSVAEASRKLYIAQPSISTAVKGLEESFGVQLFIRHHAQGVSLTPAGARFYRKAQELLRMAHEFEQNALADNDVIAGQIDIGCFETVAPLYLPGLIAGFRQAYPGVEIRIRDGEQQELVQGLTSGRFDLAFLYEHDLDSTIETEPLMPPQRPHALLPEGHRFAGQAQVSLRDLCLEPMILLDVQPSRTYFVSLFEELGLTPNIAFSSPSIEMVRGMVGQGFGFSLLVTRPHSECTYDGKKVVMVDLAEPVSTSGLAAAWLKRAQLTKPARLFVDYCREQLGKLAERRH | not failed

Looking up MTTDNPLISIYMPTWNRQQLAIRAIKSVLRQDYRHWEMIIVDDCSSSYQQLQQFVEELNDPRVRYTHNARNTGACAVRNQAIMQAQGHYITGIDDDDEWTPNRLSVFLAHKHQLTTHAFLYANDYVCEGEVYSQPASLPLYPKSPYSRRLFYKRNIIGNQVFTWAWRFKASLFDTELKAAQDYDIFLRMVVEYGEPWKVEEATQILHINHGEMQITSSPKKFSGYFHFYRKHKDKFDRASKKYQLFTLYQIRNKRMTWRTLLTLLSVRNSKRLAAGLRGR , I see its protein production listed as failed

Looking up MNTLKKAFEILDFIVKNPGDVSVSEIAEKFNMSVSNAYKYMVVLEEKGFVLRKKDKRYVPGYKLIEYGSFVLRRFNIRDIAHDHLVDIMKRTGETVHLILKDGFEGVYIDKVEGEQSIPMVSRLGMKVDLYSTASGKSILAFVPEKELKEYLKIVELKPKTPNTITNPRVLKRELEKIRKRGYAVDNEENEIGIMCVGVPIFDHNGYPVAGVSISGVARKFTEEKIEEYSDVLKEKAEEISRKLGY , I see its protein production listed as not failed

###

# assay info: label from the status in PepcDB records
value type: protein production

Worked examples follow.
• MNIWIRGGTSDANTISKEIKRNFKDSFLILTTTTDFGGKIAENFADFVISEKMNYDNLKKTLVNKKIDVFIDATHPFATHASETGMKISKELNIPYIRYERPVEEFKDVFYVENFEEAAKLALKISKKNIFYMSGIKNLKTVSEIIPIEKLIVRILPTSVPEALKILPSKNIVAMQGVFSENLNKDLITDYNCDVIITKDSGKSGGLYEKVSGAVLAGAKPIIIKRPEINYPLKFEKIDELVNYLKN = failed
• MFNKVIMVGRLTRNVELKYLPSGSAAATIGLATSRRFKKQDGTLGEEVCFIDARLFGRTAEIANQYLSKGSSVLIEGRLTYESWMDQTGKKNSRHTITADSLQFMDKKSDNPQANAMQDSIMHENSNNAYPANHNAPSQDPFNQAYAQNAYAKENLQAQPSKYQNSVPEINIDEEEIPF = failed
• MKLYLILLPVLYLIVSYISIFKMHSVITRILRIVMGILLLFVVALTTLQFPKENWWVFVVLLLLVGNVEVTGFKELKDDKKGVSILNILSLLLFVIFIILIFILY = failed
• MTLFDGTPFEWAPGRIEVRARRECGASRKSLVVAAGVSYLARMIFSFDAFVTNALFDRSGRAMFALGDGTVRLQTDEGFVTVEAHGGPLGGAVLAAAVHPSGAGIVTGGDDGRVVWSRIEGGEVVATLIAEVKNKWIEHVAASAASGLIAFTVGKEVHVRDAADPAFARTFPHEKTVSGLAFEPKGRRLASATYGGAYLWYARIADQKPTVLKWAGSHIAVEFSPDGKFLISSMQENQLHGWRLSDGKDMRMGGYPSKIKSVAFFDKGNLLATAGASGAVIWPFAGANGPMGKEAAEIGFSRDSMVVRVAGIDPQPVCIAGQDSGKIWAAHMRNGRIETLKAEKGAPISALSVSADGKRLAWGDESGEAGVLEIPDLSGPRQFVG = failed

Looking up MLFSSASFVPIVRRMSRPTILPAYILATLPLVMALLATAVSIGTGDEVVNFFRQYRQAHPALTACMQVITDFGNPLLYLVYGAIFFRARKRGDRHDMRFVAVYIVVQLLVSFLAVRILKIGFGMPRPGTEGPAIPFSFKGVYNSFPSGHTTEIVGAVVPLAWRCKALLPTLALGIYMGIVGYSRIYLGMHHITDVFAGLLLGSVAAWIIHRLADRTPS , I see its protein production listed as failed

Looking up MTLDAAPHLHPAVLSPRPQPGRHRRDLHQSSRAFVLLTCIVATLALMLSLPAGLQAAEATVIVPFGGGILRDDAQTVAAAAARIEALRLSTASLGRDSAALFSAETPARLLSLTAATFEAHTTATSVVGYPPEVEVAVNIRTTPRGGDAATALRAALRAPEKLELREGILLHTRENLLEARQLALDAARHRQKAGTESESPYDRRFAALARTLRSLDTLERALSYLDGVWRHPIILAADMRQVVEASPEMPLGWTFLGEALLQLDRPQDAVEALDRALALPDAPVRARLARGIANLRLDLTALAVDDLSRVLREAPRLAPAWRARGAARMMRREYGPMCEDFIQACNLGDCEGLASARDAGHCLAPARPQTVKADD , I see its protein production listed as failed

###

# assay info: label from the status in PepcDB records
value type: protein production

- MTKQKKLLPVASLLLGAAIWGVAWYPYRLLEQAGMRGELSTTLAYSIALLIGLILFRRQLRISEILNPAAGILFWISLSAGWTGIAYVLGIIHGEVMRVLLLFYLAPLWTILFSRILLQERLSRQGYAIILLSLAGALLLLWQPGSKLPLLASYGDWMGLSGGLAFALTNVLIRKDQQHGIQLKLLAVLSGTALTGFAATLLMESISDITHLHTHAWLILAGIGGLVFFLCILLQYGMTHIPANQAIVIMLFELVVAAIAAHFLTNEYLTGRDWAGGLMIASASLFSARVNRD: failed
- MGHHHHHHSHMVSDIRRFLSAFHEPQVGLIQAAQQLLCDEQAPQRQRLLADLLHNVSQNIAAETRAEDPPWFEGLESRFQSKSGYLRYSCESRIRSYLREVSSYPSTVGAEAQEEFLRVLGSMCQRLRSMQYNGSYFDRGAKGGSRLCTPEGWFSCQGPFDMDSCLSRHSINPYSNRESRILFSTWNLDHIIEKKRTIIPTLVEAIKEQDGREVDWEYFYGLLFTSENLKLVHIVCHKKTTHKLNCDPSRIYKPQTRLKRKQPVRKRQ: failed
- MRPAPSIVEVVAAIIIGSDGSFLLARRPEGKPYAGYWEFPGGKVNPEESLLRALKRELLEELGIHVKHAYPWITRTFTYPHARVRLHFYRVVEWHGEPHPHEDQELSWQFADNVSVEPLLPANAPVLRALALPPVYGITNAAEWGPQIAAARIGHALQKGLRLVQLREKGMRSKALDAFAREVTALAHHYGARILVNSGTGNESLCQELDMDGIHFTSADLMNLSKRPDVEWCAASCHNAEELFRAEQLEMDFAVLAPVLPTLSHPDSPVLGWRKLARIIHGSAIPVYALGGLQSEDLAIAWEHGAHGIALMRRIEQVRGTGQKA: failed

###

# assay info: label from the status in PepcDB records
value type: protein production

- MERVAVVGVPMDLGANRRGVDMGPSALRYARLLEQLEDLGYTVEDLGDVPVSLARASRRRGRGLAYLEEIRAAALVLKERLAALPEGVFPIVLGGDHSLSMGSVAGAARGRRVGVVWVDAHADFNTPETSPSGNVHGMPLAVLSGLGHPRLTEVFRAVDPKDVVLVGVRSLDPGEKRLLKEAGVRVYTMHEVDRLGVARIAEEVLKHLQGLPLHVSLDADVLDPTLAPGVGTPVPGGLTYREAHLLMEILAESGRVQSLDLVEVNPILDERNRTAEMLVGLALSLLGKRIF: not failed
- MKASSLAFSLLSAAFYLLWTPSTGLKTLNLGSCVIATNLQEIRNGFSEIRGSVQAKDGNIDIRILRRTESLQDTKPANRCCLLRHLLRLYLDRVFKNYQTPDHYTLRKISSLANSFLTIKKDLRLCHAHMTCHCGEEAMKKYSQILSHFEKLEPQAAVVKALGELDILLQWMEETE: failed
- MNSKTHLLLALTMLIWAGSFIFIKIGLKELDPFNLAFYRFLLASPLLMAWVFWKRGLAKPSGSEWLHLSVLALSGVTLLYAFQFLALKYTTATNASILINTSAVFVALWGLVKGEANPRKLAGVFLSFAGVVLIVSKGTLEFFSSKTIFGDVLMIVDGFLWAVYTVLGSKMLLKYDHETLTAYAFALGTIFLIPFALMSGFANPVTFNPETVAALLYLSILCSVFAYVVWYYALTNADSTSVAVYVYLVPLFTAIFAFYALNEKPDFFTAIGGIITIAGVYLTTAKQHQ: failed
- MVKKSYVINWARDLANRGVGVNYDGAFGSQCVDLPFWILGKFFGRPISGNAIDLLNSAKAAGYQVIYDAPGVNPRVGDIFVMHSIAYDGKDYGHTGLVIEDSDGHSIKTIEQNVDGNADNLYVGGPARYRTRSFNGIIGWIRPPYENEILENKREETDMRDFFVITNSEYTFAGVHYAKGAVLHVSPTQKRAFWVIADQENFIKQVNKNIEYVEKNASPAFLQRIVEIYQVKFEGKNVH: not failed
- MYGGAGLYKFDKLSDWMVYLDRLSKDKPVEEGWTATVFLCIRQSDKRMIGICNVRHHLNSLGLLNVSGHIGYSIRPDERKKGYAKVQLRLALLEAKKLGIDKVLVTCADWNIGSERTILANGGVYEDSRLDESTGNMMKRYWINVTERNSI: failed

Looking up MELNISESRSRSIRCIVKLGGAAITCKNELEKIHDENLEVVACQLRQAMLEGSAPSKVIGMDWSKRPGSSEISCDVDDIGDQKSSEFSKFVVVHGAGSFGHFQASRSGVHKGGLEKPIVKAGFVATRISVTNLNLEIVRALAREGIPTIGMSPFSCGWSTSKRDVASADLATVAKTIDSGFVPVLHGDAVLDNILGCTILSGDVIIRHLADHLKPEYVVFLTDVLGVYDRPPSPSEPDAVLLKEIAVGEDGSWKVVNPLLEHTDKKVDYSVAAHDTTGGMETKISEAAMIAKLGVDVYIVKAATTHSQRALNGDLRDSVPEDWLGTIIRFSK , I see its protein production listed as failed

Looking up MAAKTRTFRAAADAWLKAKEEKGLAPSTLNKIRTYLDKDILPALGDKPLDEITRTDCAELQASIEARDAHNVAEKCRTWINQIFGRAIGLGLTENDPGSRLRDIAAQAPKTQLEHHHHHH , I see its protein production listed as failed

Looking up MFTFGFTNPEGTPDFSTPGLICIAILYIVGIYINFVFTIRRLHDRNNTGWLSLLMLVPVVNIGLAIYLFCAKGTEGPNDYGPKRPTPSWERVLGWIYIALIPLALIFGVIAVIMAPTYEGYVEKSESIVIGSPSQSE , I see its protein production listed as failed

Looking up MQKVEGIIFDMDGVLFDSERISLEFWMETFEKYGYTMTKEIYTSVMGRNRKGIIEGLTDIYDSSVPIIDLYDEKTKNMIEFMERKGAPIKLGVNELISFLKENGYKMAVATSTKRERAVKRLAKANLKDYFDAIVCGDDVVNSKPNPEIFLKAAKKINVNPKNCIVIEDSPMGVEAAYNGGIRCINVPDLKEPDEQIKSQSHKILENLLEVREYLKSLNSKECHNL , I see its protein production listed as failed
